- procedure-details: Human HepG2 cell viability assay in 384 well format
- Assay type: toxicity, cell-based
- Design: dose 125 nL, time 70.5 hour; concentration not given beside the values
- assay-context: HepG2 cells, read-out: Inhibition

molecule	cytotoxicity at 70.5 h, %
O=C(CCCn1cncn1)NC1(c2ccccc2)CCC1	-4.44
Cc1cnc(CN(C)C2CCN(Cc3ccc(Cl)s3)C2)o1 (stereo unspecified)	-15.5
O=C(Nc1cccnc1)N1CCC(n2ccc(C(F)(F)F)n2)CC1	-3.71
COc1ccc(C(=O)N2CCC(Nc3ccc(C)nn3)CC2)c(F)c1	-6.97
CCOCCCNC(=O)c1cc(Br)c2c(c1)OCCO2	-8.79
CC(=O)N1C[C@@H](F)[C@@H](OCc2nc3ccc(C#N)cc3[nH]2)C1	-1.65

----------
- procedure-details: Human HepG2 cell viability assay in 384 well format
- Type: toxicity, cell-based
- Design: dose 125 nL, time 70.5 hour; concentration not given beside the values
- assay-context: HepG2 cells, read-out: Inhibition
property-label: cytotoxicity at 70.5 h (%)

molecule	experimental-result
Cc1cc(C)c(CNC(=O)N2CCN(c3ccncc3)CC2)c(=O)[nH]1	-9.77
COc1cccn(CC(=O)N2CCCC3(CCCO3)CC2)c1=O (centres undefined)	-7.92
Cc1cnn(CC2CN(CCc3ccccn3)CCO2)c1 (centres undefined)	-7.7
CN(C)Cc1cnc2n1CCN(C(=O)Cc1ccc(F)cc1)CC2	-1.54
CCn1nc(CC(C)C)cc1C(=O)N1CCC(n2cnnc2)CC1	8.59
CNC(=O)COC1COC2(CCN(c3ncccn3)CC2)C1 (centres undefined)	-1.44
NC(=O)NCC(=O)N1C[C@H]2CC[C@@H]1CN(C1Cc3ccccc3C1)C2	-10.1
Cn1cccc(NC(=O)N2CCC(CSc3ccccc3)C2)c1=O (centres undefined)	-13.5
Cc1cnc(C(=O)Nc2cc(F)ccc2OCC2CCCO2)cn1 (centres undefined)	-6.23
CS(=O)(=O)NCCNC(=O)C1(c2cccc(Cl)c2)CC1	-4.01
Cn1ccc(C(=O)N2CCCC2c2cc[nH]n2)n1 (centres undefined)	25.1
OC(CN(Cc1ccccc1)Cc1ccon1)c1cccs1 (centres undefined)	-5.21
CCOC(=O)CCNC(=O)c1cc(Cl)cc2cccnc12	-4.4
O=C(N1CCCC1)N1CCC(Nc2ccncn2)CC1	-3.32
NC(=O)N1CC[C@H](O)[C@@H]1Cc1cccnc1	-12.6
COC(=O)c1cccc(S(=O)(=O)Nc2ccc(Cl)c(C(N)=O)c2)c1	-12.3
CS(=O)(=O)CCCSCc1cc(F)cc(Br)c1	-4.67
O=c1[nH]nc2c(N3CCOCC3)nccn12	-11.6
CCS(=O)(=O)N1CC[C@@H]2[C@@H](CCC(=O)N2CCc2ccccc2)C1	1.58
Cc1cc(N2CCCC2c2cccnc2)nc(C)n1 (centres undefined)	5.57
Cc1[nH]ccc1C(=O)N1CCCC(c2ccc(C(=O)O)cc2)C1 (centres undefined)	-22.6
O=C(CCc1ccco1)Nc1ccc(Br)cn1	28.6
CN1CCCCC[C@@H]2[C@@H]1[C@H](c1ccccc1)CN2C(=O)c1cccnc1	3.63
Cc1ccc(CNc2cnn(CC(F)F)c2)cc1C	-0.638

----------
- procedure-details: Human HepG2 cell viability assay in 384 well format
- Assay type: toxicity, cell-based
- Set-up: dose 125 nL, time 70.5 hour; concentration not given beside the values
- assay-context: HepG2 cells, read-out: Inhibition

molecule	cytotoxicity at 70.5 h / %
CN1C[C@@H](C(=O)NC2CCCC2)[C@@]2(COc3ccc(F)cc3C2=O)C1	-6.62
Cc1ccc(CNC(=O)CN2CCOC(Cn3cccn3)C2)s1 (stereo not given)	-4.52
CNc1cc(C)nc(C2CN(Cc3ccc(C)nc3)CCO2)c1 (stereo not given)	-9.06
OC1COCCN(Cc2cccc(N3CCOCC3)c2)C1 (stereo not given)	-5.01
Cc1ccc(CN2Cc3ccnn3CC(C(=O)NCC3CC3)C2)o1 (stereo not given)	-13.3
c1ccc(CN2CCCn3nnc(CNc4ncccn4)c3C2)nc1	-87.8
Cn1nc(C2CNCCO2)cc1CCOc1ccc(C(F)(F)F)cc1 (stereo not given)	-1.52
CN(C)C(=O)C1CN(Cc2ccsc2)Cc2ccnn2C1 (stereo not given)	12.7
COc1ccc(CNC2CCc3ncnn3C2)cc1OCC1CC1 (stereo not given)	-14.4
Cc1noc(C)c1CN(C)C(=O)NCCOc1ccc(F)cc1F	-6.66
Cc1cnn(CCCNC(=O)NCCS(=O)(=O)Nc2ccccc2)c1	-25.5
CCOC(=O)C1CCN(Cc2csc(-c3ccc(C)o3)n2)CC1	-3.12
Cc1nc(CN(C)C2CCN(CCCOc3ccc(F)cc3)C2)no1 (stereo not given)	22.2
COC1CN(C(=O)COC(C)=O)CCC(=O)N(C)c2ccccc21 (stereo not given)	-5.15
COCCOc1cccc(CNCC2CN(C)CCO2)c1 (stereo not given)	-0.0199
CCn1cc(NC(=O)NCC(c2cccc(F)c2)N(C)C)cn1 (stereo not given)	-4.54
C[C@H]1C[C@H]2CN(C(=O)C3=CCCC3)CC[C@H]2O1	-9.81
CC(OCCCNC(=O)c1cccnc1O)c1ccccc1 (stereo not given)	-1.73
Fc1ccc(NC2CCCN(Cc3ccncc3)C2)cc1 (stereo not given)	26.1
CN(C)c1cc2c(nn1)CCN(C(=O)C1COc3ccccc3C1)C2 (stereo not given)	3.17
CCC(CO)NCc1ccc(-c2ccc(Cl)cc2)o1 (stereo not given)	7.49
CCOC1CCC2(CCN(C(=O)c3csnn3)CC2)c2ccccc21 (stereo not given)	36.5
CCS(=O)(=O)N1CCCC2(CCCN2Cc2cccc(Cl)c2)C1 (stereo not given)	-4.53
COc1cc(CNC(C)Cn2cccn2)cc(OC)c1 (stereo not given)	-9.25
CC(=O)N1CC2(CCN(c3nccc4ccccc34)CC2)CC1C(=O)O (stereo not given)	-9.28

----------
- procedure-details: Human HepG2 cell viability assay in 384 well format
- Assay type: toxicity, cell-based
- Design: dose 125 nL, time 70.5 hour; concentration not given beside the values
- assay-context: HepG2 cells, read-out: Inhibition

molecule	cytotoxicity at 70.5 h [%]
CCC(CC)NC(=O)c1nc2n(n1)-c1ccccc1S(=O)(=O)N2	-82.7
Cn1cc(N2CC3(CCN(S(C)(=O)=O)C3)CC2=O)cn1 (stereo not drawn)	2.06
Cn1ccc(CNC(=O)N2CCCC3(C2)OCCO3)c1	0.239
CCCn1c(C)c(CC(=O)NCCNC(C)=O)c2c1CC(C)(C)CC2=O	1.34
CC(C#N)(NC(=O)c1ccc(C#N)cc1)C1CC1 (stereo not drawn)	-0.776
Cn1nnc2c1C(COCC1CC1)CN(C(=O)Cc1cccs1)C2 (stereo not drawn)	-19.3
CN(Cc1ccco1)C(=O)CN1CCc2ccccc2C1	-7.16
OCCn1nccc1C1CCN(CCOc2ccccc2)CC1	8.03
Cc1cc(F)ccc1N1CCC(N2C[C@@H](C)[C@@](C)(O)C2)CC1	-5.91
N#Cc1ccc(SCCOCCO)c(Cl)c1	-5.04
Cc1cccc(N2CCC3(CCCN(C(=O)Cc4cccnc4)C3)C2)n1 (stereo not drawn)	21.3
COc1nc2ccn(CCc3scnc3C)c(=O)c2cc1C#N	-4.15
CC(NC(=O)N(C)Cc1ccncc1)c1cn(-c2ccccc2)nn1 (stereo not drawn)	4.1
O=C1NCC(C(=O)N(Cc2ccc(C(F)(F)F)cc2)C2CC2)N1 (stereo not drawn)	23.5
O=c1cc2c(nn1CN1CCN(c3ccccc3)CC1)CCC2	-4.25
O=C(c1ccccn1)N(CCO)Cc1cc(Br)ccc1F	17.2
Cc1nnc2n1CCN(CC(=O)NC(C)c1ccc3ccccc3c1)C2 (stereo not drawn)	17.7
CNC(=O)c1noc(CN2CC[C@](C)(O)[C@H](C)C2)n1	-8.07
Cc1csc(C2CCCN(C(=O)c3cnn4ccc(C)nc34)C2)n1 (stereo not drawn)	-8.34
CCn1cc2c(n1)C(COC)CN(c1ccc(C)nn1)C2 (stereo not drawn)	-7.13
CCc1nc(CN(C(C)=O)C2CCN(CC3CCOCC3)C2)no1 (stereo not drawn)	-9.95
O=C(NCc1cccs1)c1nc2c(o1)CN(CC1CC1)C2	-9.19
CC(=O)N1CCC2(CC1)CN(C(=O)c1cccc3[nH]ccc13)CCO2	27.3
O=C(c1ccccc1)N1C[C@@H]2CC[C@H](C1)N(S(=O)(=O)c1cccnc1)C2	-7.07
CCO[C@@H]1CC[C@H]2[C@H]1OCCN2CC1CCC1	-104
CCN(CC)CC[C@H]1CN(C(=O)c2ccc(F)cc2)CC[C@H]1CC(=O)O	-2.08
O=C(Cc1ccc(F)c(F)c1)NC1COc2ccccc2C1=O (stereo not drawn)	-0.695
CNc1cncc(C2CCCN2C(=O)c2ccc3oc(C)cc3c2)n1 (stereo not drawn)	-8.56
CC1CCCN(C(=O)c2ccn(COc3ccccc3)n2)C1 (stereo not drawn)	12.9
O=C(C1CC1)N1CCC2(CC1)CNCCO2	4.17
Cn1c(CN2CCC(N3CCNC3=O)CC2)cc(=O)n(C)c1=O	-7.49
Cc1cc(CN2C[C@@H]3CN(C(=O)c4ccco4)CCO[C@@H]3C2)no1	-5.36
Cc1ccc(CNCC2CNc3cc(C)nn3C2)cn1 (stereo not drawn)	15.9
Cc1nc2cc(C(=O)N(CCC#N)CC3CCCO3)ccc2[nH]1 (stereo not drawn)	-1.19
CCn1c(C2CCCN(Cc3ccc4ccccc4n3)C2)nn(C)c1=O (stereo not drawn)	-3.7
CN1C(=O)C2(CCN(S(C)(=O)=O)CC2)c2cc(F)ccc21	-3.04
COc1ccc(NC(=O)CCSc2ccc3nncn3n2)c(OC)c1	-11.8
Cc1ccccc1CN1CCN(C(=O)CCn2ccccc2=O)CC1	-12.1
O=C(C1CCCC1)N1CCC2(CC1)OCCO2	-1.7
Cc1cncc(C2CCCN(Cc3ccncc3)C2)n1 (stereo not drawn)	13.6
CCN1CCC2(CC1)CN(CCO)c1ccccc12	21.2
CC(CC(=O)O)CC(=O)Nc1sc2c(c1C(N)=O)CCc1ccccc1-2 (stereo not drawn)	19.3
Cc1cc(N2CCCC2Cn2nc(C)cc2C)n2ncnc2n1 (stereo not drawn)	29
CS(=O)(=O)Nc1ccn(Cc2ccc(Cl)cc2)n1	10.5
Cc1ccc(CN(C)C)cc1NC(=O)C1CC1	-9.96
CCC(C)NC(=O)c1cccc(CNCc2csc(C(C)C)n2)c1 (stereo not drawn)	-89.9
COc1ccccc1CCNC(=O)C1CCC(Cn2cnnn2)CC1 (stereo not drawn)	-18.1
Cn1nc(CN2CCCCC2)c2c1CN(C(=O)Nc1cccc(F)c1)C2	11.6
